assay: In vivo pharmacokinetic studies in mice; conditions: male, C57BL/6, mouse, plasma, intraperitoneal, 0.1 mg/kg
Measurement name: clearance

Query string: Dear colleague, please send me the reported clearance for CC[C@]1(O)C[C@H]2CN(CCc3c([nH]c4ccccc34)[C@@](C(=O)OC)(c3cc4c(cc3OC)N(C=O)[C@H]3[C@@](O)(C(=O)OC)[C@H](OC(C)=O)[C@]5(CC)C=CCN6CC[C@]43[C@@H]65)C2)C1 [VCR, Vincristine] when you can.
Result string: 5.96 L/h/kg

====

assay: In vivo pharmacokinetic studies in mice; conditions: male, C57BL/6, mouse, plasma, intraperitoneal
Measurement name: clearance (mL/min/kg)
Entry rule: numbers only, all in mL/min/kg.

Query string: Return clearance for the following molecule: `CC[C@]1(O)C[C@H]2CN(CCc3c([nH]c4ccccc34)[C@@](C(=O)OC)(c3cc4c(cc3OC)N(C=O)[C@H]3[C@@](O)(C(=O)OC)[C@H](OC(C)=O)[C@]5(CC)C=CCN6CC[C@]43[C@@H]65)C2)C1`
Result string: 81.3
